The reported numbers originate from ChEMBL document CHEMBL1133932.

- Tested on: CCRF-CEM
- PROTOCOL_NOTES: In vitro inhibition of CCRF-CEM lymphoblastic leukemia cell replication by the compound
- Type: functional, cell-based
- PROTOCOL_CONDITIONS: Homo sapiens
pIC50: −log10 of the molar value.
PARAMETER_MEASURED: pIC50

Asked: State the recorded pIC50 for this entry: CC1(CO)OCC(n2cc(F)c(N)nc2=O)O1 (stereo not drawn)
Given back: < 4.00

Asked: State the recorded pIC50 for this entry: CC1(CO)OC[C@@H](n2cc(F)c(N)nc2=O)O1 (stereo partly drawn)
Given back: < 4.00

Asked: State the recorded pIC50 for this entry: CC1(CO)OCC(n2ccc(N)nc2=O)O1 (stereo not drawn)
Given back: 4.52

Asked: State the recorded pIC50 for this entry: C[C@]1(CO)OCC(n2cc(F)c(N)nc2=O)O1 (single isomer, unassigned)
Given back: < 4.00

Asked: State the recorded pIC50 for this entry: CC1(CO)OC[C@@H](n2ccc(N)nc2=O)O1 (stereo partly drawn)
Given back: < 4.00

Asked: State the recorded pIC50 for this entry: C[C@]1(CO)OCC(n2ccc(N)nc2=O)O1 (stereo partly drawn)
Given back: < 4.00

Asked: State the recorded pIC50 for this entry: C[C@]1(CO)OCC(n2cc(F)c(N)nc2=O)O1 (stereo partly drawn)
Given back: < 4.00

Asked: State the recorded pIC50 for this entry: C[C@]1(CO)OCC(n2ccc(N)nc2=O)O1 (single isomer, unassigned)
Given back: 4.52
